# Species on record: Rattus norvegicus
# experiment: Open TG-GATES - Regimen: Daily Repeat
# Type: toxicity, organism-based, Sprague-Dawley
# Set-up: regimen Daily Repeat, gender Male, age 6 weeks
# cond: in vivo, po, 0 mg/kg, […], tissue Plasma, route gavage, dose level Control, time 28 day
The class of a record is decided solely by its measured ALP; consult lo = under 600 IU/L, mid = from 600 IU/L up to 1000 IU/L, hi = 1000 IU/L and over

Query: Form field 'band' for Cc1cccc(Nc2cc(Cl)nc(SCC(=O)O)n2)c1C
Reply: mid

Query: Form field 'band' for Cn1c(=O)c2c(ncn2C)n(C)c1=O
Reply: hi

Query: Form field 'band' for O=C1NC(=O)C(c2ccccc2)(c2ccccc2)N1
Reply: hi

Query: Form field 'band' for Cn1cnc([N+](=O)[O-])c1Sc1ncnc2nc[nH]c12
Reply: hi

Query: Form field 'band' for Cc1cnc(NC(=O)C2=C(O)c3ccccc3S(=O)(=O)N2C)s1
Reply: lo

---
Query: Form field 'band' for COc1ccc(O)c(C(C)(C)C)c1.COc1ccc(O)cc1C(C)(C)C [BUTYLATED HYDROXYANISOLE]
Reply: hi

Query: Form field 'band' for O=C1CN(/N=C/c2ccc(-c3ccc([N+](=O)[O-])cc3)o2)C(O)=N1
Reply: mid

Query: Form field 'band' for CS(=O)(=O)Nc1ccc([N+](=O)[O-])cc1Oc1ccccc1 [NIMESULIDE]
Reply: mid

Query: Form field 'band' for O=P1(N(CCCl)CCCl)NCCCO1 (stereo unspecified) [CYCLOPHOSPHAMIDE ANHYDROUS]
Reply: hi

Query: Form field 'band' for COc1ccc(Cl)cc1C(=O)NCCc1ccc(S(=O)(=O)NC(=O)NC2CCCCC2)cc1 [GLYBURIDE]
Reply: lo

* * *

# Species: Rattus norvegicus
# experiment: Open TG-GATES - Regimen: Single
# Assay type: toxicity, organism-based, Sprague-Dawley
# Parameters: regimen Single, gender Male, age 6 weeks
# cond: in vivo, po, 0 mg/kg, 24 h, tissue Blood, route gavage, dose level Control
Measured APTT of individual entries
Numbers only; they are read as s.

Query: For the compound O=C1CN(/N=C/c2ccc(-c3ccc([N+](=O)[O-])cc3)o2)C(O)=N1 , report APTT.
Reply: 17.5

Query: For the compound Cn1cnc([N+](=O)[O-])c1Sc1ncnc2nc[nH]c12 , report APTT.
Reply: 21.7

Query: For the compound O=C1NC(=O)C(c2ccccc2)(c2ccccc2)N1 , report APTT.
Reply: 17.7

* * *

# Species on record: Rattus norvegicus
# experiment: Open TG-GATES - Regimen: Single
# Format: toxicity, organism-based, Sprague-Dawley
# Set-up: regimen Single, gender Male, age 6 weeks
# cond: in vivo, po, 0 mg/kg, 24 h, tissue Plasma, route gavage, dose level Control
Measured TBIL of individual entries
Kindly report the value followed by its unit.

Example entries and their recorded answers appear below.
Query: For the molecule O=C1CN(/N=C/c2ccc(-c3ccc([N+](=O)[O-])cc3)o2)C(O)=N1 , report TBIL.
Reply: 0.4 mg/dL

Query: For the molecule Cc1cnc(NC(=O)C2=C(O)c3ccccc3S(=O)(=O)N2C)s1 , report TBIL.
Reply: 0.2 mg/dL

Query: For the molecule S=C=Nc1cccc2ccccc12 [1-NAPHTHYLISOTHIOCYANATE] , report TBIL.
Reply: 0.1 mg/dL

Query: For the molecule COc1ccc(Cl)cc1C(=O)NCCc1ccc(S(=O)(=O)NC(=O)NC2CCCCC2)cc1 [GLYBURIDE] , report TBIL.
Reply: 0.2 mg/dL

Query: For the molecule Cc1cccc(Nc2cc(Cl)nc(SCC(=O)O)n2)c1C , report TBIL.
Reply: 0.032 mg/dL

---
Query: For the molecule COc1ccc(O)c(C(C)(C)C)c1.COc1ccc(O)cc1C(C)(C)C [BUTYLATED HYDROXYANISOLE] , report TBIL.
Reply: 0.066 mg/dL

Query: For the molecule CNCCC(Oc1ccc(C(F)(F)F)cc1)c1ccccc1.Cl (stereo unspecified) [FLUOXETINE HYDROCHLORIDE] , report TBIL.
Reply: 0.036 mg/dL

* * *

# Organism: Rattus norvegicus
# experiment: Open TG-GATES - Regimen: Single
# Assay type: toxicity, organism-based, Sprague-Dawley
# Parameters: regimen Single, gender Male, age 6 weeks
# cond: in vivo, po, 0 mg/kg, 9 h, tissue Plasma, route gavage, dose level Control
Measured TC of individual entries
Numbers only; they are read as mg/dL.

Query: For the compound CS(=O)(=O)Nc1ccc([N+](=O)[O-])cc1Oc1ccccc1 [NIMESULIDE] , report TC.
Reply: 70.8

* * *

# Species on record: Rattus norvegicus
# experiment: Open TG-GATES - Regimen: Single
# Type: toxicity, organism-based, Sprague-Dawley
# Design: regimen Single, gender Male, age 6 weeks
# cond: in vivo, po, 0 mg/kg, 24 h, tissue Blood, route gavage, dose level Control
property measured: Eos
Kindly report the value followed by its unit.

Example entries and their recorded answers appear below.
Query: For the molecule Cc1cnc(NC(=O)C2=C(O)c3ccccc3S(=O)(=O)N2C)s1 , report Eos.
Reply: 1.2%

Query: For the molecule COc1ccc(Cl)cc1C(=O)NCCc1ccc(S(=O)(=O)NC(=O)NC2CCCCC2)cc1 [GLYBURIDE] , report Eos.
Reply: 1%

Query: For the molecule Cc1cccc(Nc2cc(Cl)nc(SCC(=O)O)n2)c1C , report Eos.
Reply: 1%

Query: For the molecule S=C=Nc1cccc2ccccc12 [1-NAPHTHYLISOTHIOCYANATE] , report Eos.
Reply: 0.8%

Turning now to a further record.
Query: For the molecule CS(=O)(=O)Nc1ccc([N+](=O)[O-])cc1Oc1ccccc1 [NIMESULIDE] , report Eos.
Reply: 1%

* * *

# Species on record: Rattus norvegicus
# experiment: Open TG-GATES - Regimen: Daily Repeat
# Assay type: toxicity, organism-based, Sprague-Dawley
# Design: regimen Daily Repeat, gender Male, age 6 weeks
# cond: in vivo, po, 0 mg/kg, […], tissue Blood, route gavage, dose level Control, time 14 day
Note to self: values exactly at 60 fL are class 1. So MCV at or above 60 fL is class 1, below is class 0.

Consider the worked cases shown below.
Query: Say whether CS(=O)(=O)Nc1ccc([N+](=O)[O-])cc1Oc1ccccc1 [NIMESULIDE] shows MCV of 60 fL or more.
Reply: class 1

Query: Say whether Cc1cccc(Nc2cc(Cl)nc(SCC(=O)O)n2)c1C shows MCV of 60 fL or more.
Reply: class 0

---
Query: Say whether COc1ccc(O)c(C(C)(C)C)c1.COc1ccc(O)cc1C(C)(C)C [BUTYLATED HYDROXYANISOLE] shows MCV of 60 fL or more.
Reply: class 0

* * *

# Species on record: Rattus norvegicus
# experiment: Open TG-GATES - Regimen: Daily Repeat
# Format: toxicity, organism-based, Sprague-Dawley
# Set-up: regimen Daily Repeat, gender Male, age 6 weeks
# cond: in vivo, po, 0 mg/kg, […], tissue Blood, route gavage, dose level Control, time 7 day
Binary label based on Lym with cut-off 80%: below gives MET, not below gives NOT MET.

Query: Item Cn1cnc([N+](=O)[O-])c1Sc1ncnc2nc[nH]c12 : Lym beneath 80%, strictly?
Reply: MET

---
Query: Item COc1ccc(O)c(C(C)(C)C)c1.COc1ccc(O)cc1C(C)(C)C [BUTYLATED HYDROXYANISOLE] : Lym beneath 80%, strictly?
Reply: MET

Query: Item CS(=O)(=O)Nc1ccc([N+](=O)[O-])cc1Oc1ccccc1 [NIMESULIDE] : Lym beneath 80%, strictly?
Reply: MET

Query: Item Cc1cccc(Nc2cc(Cl)nc(SCC(=O)O)n2)c1C : Lym beneath 80%, strictly?
Reply: NOT MET

* * *

Measured Plat of individual entries
# Species on record: Rattus norvegicus
# experiment: Open TG-GATES - Regimen: Single
# Type: toxicity, organism-based, Sprague-Dawley
# Set-up: regimen Single, gender Male, age 6 weeks
# cond: in vivo, po, 0 mg/kg, 3 h, tissue Blood, route gavage, dose level Control
Numbers only; they are read as x10_4/uL.

Query: For the compound Cn1cnc([N+](=O)[O-])c1Sc1ncnc2nc[nH]c12 , report Plat.
Reply: 117.7

Query: For the compound S=C=Nc1cccc2ccccc12 [1-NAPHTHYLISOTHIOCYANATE] , report Plat.
Reply: 124.1

Query: For the compound C=CCO , report Plat.
Reply: 135.4

Query: For the compound Cc1cccc(Nc2cc(Cl)nc(SCC(=O)O)n2)c1C , report Plat.
Reply: 115.3

Query: For the compound O=C1NC(=O)C(c2ccccc2)(c2ccccc2)N1 , report Plat.
Reply: 116.9

---
Query: For the compound COc1ccc(O)c(C(C)(C)C)c1.COc1ccc(O)cc1C(C)(C)C [BUTYLATED HYDROXYANISOLE] , report Plat.
Reply: 132.5

Query: For the compound COc1ccc(Cl)cc1C(=O)NCCc1ccc(S(=O)(=O)NC(=O)NC2CCCCC2)cc1 [GLYBURIDE] , report Plat.
Reply: 125.5

Query: For the compound CS(=O)(=O)Nc1ccc([N+](=O)[O-])cc1Oc1ccccc1 [NIMESULIDE] , report Plat.
Reply: 118.2
